Molecular target: T1, wild-type water-soluble pyrroloquinoline quinone (PQQ) glucose dehydrogenase (GDH-B) (UniProt P13650 25-478)
T1 construct: water-soluble PQQ-dependent glucose dehydrogenase (GDH-B); structural gene in pTrc99A; Produced as apo-form in E. coli; PQQ and Ca2+ are added for activity assays; also called wild-type GDH-B; W.T; source: E. coli PP2418 (pTrc99A), purified as previously described (cation exchange chromatography)
T1 sequence (looked up): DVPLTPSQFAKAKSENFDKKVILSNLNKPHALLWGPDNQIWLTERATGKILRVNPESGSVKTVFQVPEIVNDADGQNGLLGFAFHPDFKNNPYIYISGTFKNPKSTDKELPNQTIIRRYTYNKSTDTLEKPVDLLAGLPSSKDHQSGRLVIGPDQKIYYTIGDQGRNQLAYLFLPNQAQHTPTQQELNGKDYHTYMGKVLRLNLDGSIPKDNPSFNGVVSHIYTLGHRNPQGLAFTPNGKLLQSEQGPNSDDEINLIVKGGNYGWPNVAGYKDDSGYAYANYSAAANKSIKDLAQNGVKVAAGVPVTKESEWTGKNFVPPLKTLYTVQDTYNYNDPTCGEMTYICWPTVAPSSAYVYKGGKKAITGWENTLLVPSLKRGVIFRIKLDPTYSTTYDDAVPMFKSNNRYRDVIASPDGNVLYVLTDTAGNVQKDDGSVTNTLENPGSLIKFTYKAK
Test: enzyme inhibition assay; residual activity of 0.7 nM GDH-B for 50 mM D-glucose after 1 h incubation with various concentrations of peptide; DCIP/PMS, 10 mM MOPS-NaOH pH 7.0, PQQ, CaCl2; non-competitive dominant mixed inhibition
Details: both partners purified
Measured quantity: Ki (µM)

1) NSTHHHHFATIW (12-mer selected from the Ph.D.-12 phage display peptide library; Immobilised on a CM5 chip by amine coupling in the SPR; also called HI4–6; source: synthetic peptide, bought: Sigma Aldrich Japan) [DEE4–10 synthesized 12-mer peptide]; 7.4
